Attribution: patent US20080199503A1

Target: recombinant neutral endopeptidase
Experiment: fluorogenic substrate (Abz-RL-EDDnp) inhibition assay, recombinant NEP
observation.type: Ki

substance: EVASIN-10c (peptide)
readout.value: 253 µM
